Target: Sodium/hydrogen exchanger 1 (Oryctolagus cuniculus, UniProt P23791)
Sequence (P23791 whole entry): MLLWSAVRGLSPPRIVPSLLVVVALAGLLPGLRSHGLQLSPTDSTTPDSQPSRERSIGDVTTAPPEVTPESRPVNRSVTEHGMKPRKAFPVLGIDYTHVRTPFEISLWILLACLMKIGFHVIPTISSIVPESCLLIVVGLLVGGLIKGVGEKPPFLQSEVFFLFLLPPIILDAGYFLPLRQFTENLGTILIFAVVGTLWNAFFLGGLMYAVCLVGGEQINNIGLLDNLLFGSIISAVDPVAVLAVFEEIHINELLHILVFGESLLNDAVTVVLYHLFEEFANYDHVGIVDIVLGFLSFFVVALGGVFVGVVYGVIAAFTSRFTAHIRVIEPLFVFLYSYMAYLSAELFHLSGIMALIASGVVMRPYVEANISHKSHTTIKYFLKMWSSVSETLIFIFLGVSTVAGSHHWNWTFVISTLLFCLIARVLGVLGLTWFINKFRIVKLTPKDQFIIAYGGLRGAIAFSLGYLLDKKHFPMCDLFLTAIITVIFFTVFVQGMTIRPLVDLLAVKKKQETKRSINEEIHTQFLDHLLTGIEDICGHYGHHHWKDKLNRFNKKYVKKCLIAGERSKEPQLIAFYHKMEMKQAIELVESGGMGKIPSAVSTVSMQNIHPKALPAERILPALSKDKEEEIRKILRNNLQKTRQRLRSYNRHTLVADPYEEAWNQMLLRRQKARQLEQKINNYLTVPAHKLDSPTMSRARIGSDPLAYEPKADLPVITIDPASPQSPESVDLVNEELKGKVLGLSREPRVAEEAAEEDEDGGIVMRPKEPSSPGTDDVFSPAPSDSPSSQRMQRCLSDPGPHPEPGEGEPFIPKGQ
recorded_endpoint: pIC50
// returns pIC50 (minus log10 of molar concentration), number only

stdin: What value of pIC50 has been reported for the following compound? CCN(c1nc(N)c(C(=O)NC(=N)N)nc1Cl)C(C)C [5-(N-ETHYL-N-ISOPROPYL)AMILORIDE]
stdout: 7.70

---

Biological target: Sodium/hydrogen exchanger 2 (Rattus norvegicus, UniProt P48763)
Sequence (P48763 whole entry): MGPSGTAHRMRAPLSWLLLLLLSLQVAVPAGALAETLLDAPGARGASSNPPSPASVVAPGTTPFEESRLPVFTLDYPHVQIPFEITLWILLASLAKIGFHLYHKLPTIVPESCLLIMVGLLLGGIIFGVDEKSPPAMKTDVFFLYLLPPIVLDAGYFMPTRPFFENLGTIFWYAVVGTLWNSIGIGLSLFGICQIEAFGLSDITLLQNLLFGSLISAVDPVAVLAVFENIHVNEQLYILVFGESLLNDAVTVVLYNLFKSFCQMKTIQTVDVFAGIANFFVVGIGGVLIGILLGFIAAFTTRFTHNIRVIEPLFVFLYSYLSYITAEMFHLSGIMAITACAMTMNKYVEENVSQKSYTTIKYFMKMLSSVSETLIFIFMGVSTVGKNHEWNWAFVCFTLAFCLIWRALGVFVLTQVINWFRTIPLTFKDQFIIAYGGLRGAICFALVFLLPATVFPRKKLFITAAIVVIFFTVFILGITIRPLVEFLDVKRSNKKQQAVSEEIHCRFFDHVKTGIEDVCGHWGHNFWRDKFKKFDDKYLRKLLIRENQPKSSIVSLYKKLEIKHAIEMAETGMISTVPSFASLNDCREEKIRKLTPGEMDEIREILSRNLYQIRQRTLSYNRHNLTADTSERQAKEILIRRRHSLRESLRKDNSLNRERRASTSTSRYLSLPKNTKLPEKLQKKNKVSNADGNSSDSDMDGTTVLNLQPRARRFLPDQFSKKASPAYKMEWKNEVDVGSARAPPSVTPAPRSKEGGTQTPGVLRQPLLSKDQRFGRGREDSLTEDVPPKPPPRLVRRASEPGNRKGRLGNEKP
recorded_endpoint: pIC50
// returns pIC50 (minus log10 of molar concentration), number only

stdin: What value of pIC50 has been reported for the following molecule? CN(C)c1nc(N)c(C(=O)NC(=N)N)nc1Cl
stdout: 6.60
